biological target: T1, HLA-A*0201 molecule expressed on human T2 cells (human); experiment: T2 cells (HLA-A*0201), peptide at 10 µM, anti-HLA-A2 flow cytometry
T1 construct: also called HLA-A2
measure: mean relative fluorescence intensity (HIV peptide = 100)

For orientation, consider the following solved cases.
Task item: State its mean relative fluorescence intensity (HIV peptide = 100) for this binder: FLAFVPLQL (also called CD37-B1i) [CD37-B1]
Reply: 106 % of HIV pol 589-597 at 100 µM

Task item: State its mean relative fluorescence intensity (HIV peptide = 100) for this binder: PLPGLLFGA [TNFRSF13C-H3]
Reply: 0 % of HIV pol 589-597 at 100 µM

---
Task item: State its mean relative fluorescence intensity (HIV peptide = 100) for this binder: YVFEHPELL [CD22-B11]
Reply: 124 % of HIV pol 589-597 at 100 µM

Task item: State its mean relative fluorescence intensity (HIV peptide = 100) for this binder: TLLFLTPML [CD19-B2]
Reply: 114 % of HIV pol 589-597 at 100 µM

Task item: State its mean relative fluorescence intensity (HIV peptide = 100) for this binder: LLVGILHLV [CD19-B1]
Reply: 40 % of HIV pol 589-597 at 100 µM
